- assay-notes: inhibitors of the yeast RAM network, pilot screen, dse1pr::URA3 reporter, 5-FOA selection (AID 869);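 also: 0% = DMSO wells with no growth and 100% = 10 µM 1-NA-PP1 with full growth; RAM network block rescues cells from 5-FOA so hits raise OD615 growth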
- conditions-used: S. cerevisiae dse1pr::URA3 5-FOA growth, OD615, 2 d; at 10 µM; active compounds read high; strain carries analog-sensitive mutant Cbk1 kinase
What inhibition was measured for each of the following?
Express the result in % but write the number alone.

Request: Look up inhibition: CC(c1ccccc1)C1C(C#N)=C(N)OC2=C1C(=O)CCC2 (centres undefined)
Result: 3.24

Request: Same question for O=C(Cn1cc(C(=O)c2cccs2)c2ccccc21)NCc1ccc2c(c1)OCO2 please.
Result: 1.08

Request: Cool, now Cc1cc(NC(=O)CSc2nc3c(c(=O)n2-c2ccccc2)SC(C)C3)no1 (centres undefined)
Result: 4.66

Request: Another: C=C(C)Cn1c(SCC(=O)O)nc2c1c(=O)[nH]c(=O)n2C
Result: 0.63

Request: Again, but for CCc1nnc(SCc2ccc(OC)c(Br)c2)n1N
Result: 0.21

Request: Next up: Cc1cc2nsnc2c(S(=O)(=O)NCC(=O)O)c1C
Result: 2.25

Request: Please answer likewise for Cc1c(N2C(=O)CSC23C(=O)Nc2ccccc23)c(=O)n(-c2ccccc2)n1C (centres undefined)
Result: 3.84

Request: Item: COc1cc(N)ccc1Cc1ccc(N)cc1OC
Result: -0.06

Request: And the next one, O=C(CN1CCN(C2CCCCC2)CC1)Nc1ccccc1N1CCCCC1 ?
Result: 0.16

Request: Consider next the compound O=C(CN1CCN(C(=O)c2ccco2)CC1)Nc1ccccc1-c1ccccc1 in the same way.
Result: 1.32

Request: Quick one: CC(C)COC(=O)c1cc(=O)[nH]c2ccccc12
Result: 0.855

Request: Quick one: COCCn1c(SCC(=O)NCC2CCCO2)nc2c(c1=O)SC(C)C2 (centres undefined)
Result: 1.19

Request: Follow-up entry: O=C(c1coc2ccccc2c1=O)N1CCN(c2cccc(C(F)(F)F)c2)CC1
Result: 1.23

Request: Next up: O=C(Nc1cccc(C(F)(F)F)c1)c1cnc2n(c1=O)CCS2
Result: 2.6

Request: And the next one, COCCN(CCOC)C(=O)c1cc2sc3ccccc3c2s1 ?
Result: 0.11

Request: One more compound: O=C(CCS(=O)(=O)c1cccc2nonc12)N1CCCc2ccccc21
Result: 2.08

Request: Further, for O=C(CSc1ncnc2c1oc1ccccc12)NC1CCCCC1 ?
Result: 1.92

Request: Can you check CC1CCN(C(=O)CSc2ccc3nnc(-c4cccc(F)c4)n3n2)CC1 next?
Result: 0.67

Request: Similarly, CCCc1ncc(C(O)c2cccc(OC)c2OC)n1C (centres undefined) ?
Result: 0.71

Request: Proceed to Cc1ccc(Cn2c(CN3CC(C)OC(C)C3)nc3c2c(=O)n(C)c(=O)n3C)cc1 (centres undefined)
Result: 2.09

Request: Try the compound CCOC(=O)NC(Nc1ncccn1)(C(F)(F)F)C(F)(F)F
Result: 1.17

Request: Same for c1ccc2[nH]c(-c3ccnc4ccccc34)nc2c1
Result: 0.605

Request: Another: CCn1cc(S(=O)(=O)CC(=O)Nc2cc(C)ccc2C)c2ccccc21
Result: 2.07

Request: Further, for CNC(=O)CN1C(=O)CSc2nc(C)cc(C)c21 ?
Result: 1.83

---

- assay-notes: OD615 S. cerevisiae growth inhibition, permissive medium, pilot counter-assay, permissive growth control for S. cerevisiae lifespan shortening project (AID 705)
- conditions-used: OD615, 24 h, at 10 µM, active compounds read high
measure: growth inhibition (%)
The response must be a number in % with no trailing unit.

Request: Suppose we examine the molecule CC(C)(C)c1nc(CN2CCCCC2)cc(CN2CCCCC2)c1O ; what growth inhibition value has been reported?
Result: -13.8

Request: Also, Cn1c(=O)[nH]c(=O)c2c1nc(N1CCCC1)n2CC(O)COc1ccccc1 (stereo unspecified) please.
Result: -10.3

Request: O=C(NCCc1csc(-c2cccnc2)n1)c1cccs1
Result: 1.53

Request: Then this molecule: O=C(CCCC(=O)Nc1cccnc1)Nc1cccnc1
Result: -6.39

Request: Try the molecule O=C(c1cc2ccccn2n1)N1CCN(c2ccccn2)CC1
Result: -2.62

Request: What do you get for CC(=O)CCc1c(C)c2cccc(C)c2[nH]c1=O ?
Result: 1.6

---

Answer each item with its documented RAM network inhibition.
- assay-notes: RAM signaling pathway blockade in yeast – S. cerevisiae, Pdr1DBD-CYC8 efflux-inhibited sensitized strain, primary screen (AID 1298);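 also: 0% = DMSO untreated cells without growth and 100% = 10 µM 1-NA-PP1 full growth; higher means more yeast growth rescued from 5-FOA killing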
- conditions-used: S. cerevisiae cbk1-as DSE1-URA3 strain, 5-FOA growth OD615, 2 d; at 50 µM; active compounds read high
Write the answer as a number in %, unit excluded.

Request: # get_value(readout='RAM network inhibition', item= CN1CCN(C(=O)c2ccc3c(c2)N(Cc2ccc(Cl)cc2)C(=O)c2ccccc2S3=O)CC1 (centres undefined) )
Result: 1.3

Request: Next compound: CCCc1ccc(-c2ccc(C(=O)O)cc2)nc1
Result: -2.78

Request: // query: CCC(=O)Nc1ccc(C(=O)c2ccccc2)cc1
Result: 2.9

Request: # repeat for CCOC(=O)C1=C(CS(=O)(=O)c2ccccc2)NC(=O)NC1c1ccccc1OCC (centres undefined)
Result: -0.04

Request: And CCOC(=O)N1CCN(S(=O)(=O)c2cccc3nonc23)CC1 ?
Result: 5.47

Request: Let us now turn to CS(=O)(=O)Nc1cccc2cccnc12
Result: 0.27

Request: Follow-up item: COc1ccccc1N1CCN(C(=O)C2CCN(S(=O)(=O)c3ccccc3)CC2)CC1
Result: 5.76

Request: Same question for CC(=O)Nc1ccc(S(=O)(=O)N2CCN(c3ccc(C)c(Cl)c3)CC2)cc1 please.
Result: 1.14

Request: Lookup O=C(c1cnn2c(C(F)(F)F)cc(-c3ccco3)nc12)N1CCCCCC1
Result: 1.5

Request: Please give the result for O=C(c1ccccn1)N(CC1CCCO1)C1(C(=O)NC2CCCCC2)CCCCC1 (centres undefined) too.
Result: -0.32

Request: Now try O=C(c1ccccc1)N1CCn2c(nc3ccccc32)C1 .
Result: 6.85

Request: Lookup CCN1CCn2c3c(c4cc(C)ccc42)CCCC31 (centres undefined)
Result: 0.21

Request: Same again, this time with O=C(Oc1ccnc2cc(Cl)ccc12)N1CCOCC1
Result: 7.61

Request: And what about the compound O=C(CNC(=O)c1ccccc1F)NC1CC1 ?
Result: 6.17

Request: O=C(CSc1ncnc2c1oc1ccccc12)NC1CCCCC1 , same question.
Result: 4.21

Request: Next: C=CCN(C(=O)CN1CCOCC1)c1nc(C)c(-c2ccccc2)s1
Result: 0.88

Request: What would you report for CCOC(=O)C1=C(C)NC(=O)NC1c1ccc(C)o1 (centres undefined) ?
Result: 2.74

Request: Thanks! And CCN1CCN(C(c2ccccc2)c2sc3nc(C)nn3c2O)CC1 (centres undefined) ?
Result: 5.66

Request: Entry to check: COC(=O)C1=C(C)N2C(=O)CSC2=NC1c1ccc2c(c1)OCO2 (centres undefined)
Result: 0.78

Request: Another: Cc1oc(-c2ccccc2)nc1CS(=O)CC(=O)N1CCc2ccccc2C1 (centres undefined)
Result: 1.69

Request: Same question, O=C(Cc1cc(=O)[nH]c(=O)[nH]1)N1CCN(C(=O)c2ccco2)CC1 this time
Result: 1.53

Request: How about Cc1[nH]c(C)c2c(=O)n(-c3ccccc3)ncc12 ?
Result: 2.55

Request: Next record, please: CC1=C(C(=O)N(C)C)C(c2cccc(Cl)c2)NC(=O)N1 (centres undefined)
Result: 2.17

Request: Note, next up: COCCn1c(SCC(=O)NCC2CCCO2)nc2c(c1=O)SC(C)C2 (centres undefined)
Result: 3.08

---

- assay-notes: Restrictive medium S. cerevisiae growth inhibition, OD615, pilot screen of yeast lifespan reduction project, restrictive growth control (AID 706);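 also: modified DeaD lifespan yeast strain shifted to restrictive glucose medium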
- conditions-used: OD615, 48 h, at 10 µM, active compounds read high
measure: growth inhibition (%)
Report the value in % with no unit label.

Request: # growth inhibition lookup, item Cc1cc(NC(=O)c2cc3n(n2)C(C(F)(F)F)CC(c2ccco2)N3)no1 (stereo unspecified)
Result: 5.53

Request: Let us now turn to CN(C)CCNC(=O)c1ccc(CS(=O)(=O)c2c(Cl)cccc2Cl)o1
Result: -9.77

Request: // repeat for CCCCCOc1ccc(NC(=O)CCCC(=O)O)cc1 and report
Result: 2.42

Request: // next record Cc1c(C(=O)NCc2cccnc2)oc2ccccc12
Result: -5.65

Request: Same question for COc1cc(C2N(c3ccccc3)CCN2c2ccccc2)ccc1OC(C)=O please.
Result: -13.6

Request: Quick one: O=C(NC1CCN(C(=O)N2c3ccccc3Sc3ccccc32)CC1)c1ccco1
Result: -13.8

Request: And Cc1cc(-c2ccco2)n(CC(=O)NCCN(C)C)n1 ?
Result: 1.02

Request: What about CCOC(=O)c1ccc(NC(=O)c2nccnc2C(=O)O)cc1 ?
Result: -2.24

Request: Moving on to the next molecule: COc1ccc(CCNC(=O)Cc2cc(=O)[nH]c(=O)[nH]2)cc1OC
Result: 3

Request: Another: CCCc1nnc(NC(=O)CCC(=O)O)s1
Result: -1.89

Request: And the next one, CC1CCN(C(=O)C(Cc2ccccc2)NS(=O)(=O)c2ccc3c(c2)oc(=O)n3C)CC1 (stereo unspecified) ?
Result: -17.6
